- assay_method_text: self-splicing fitness, log relative to wild type (ln ratio); higher = more splicing; Tetrahymena group I intron in knt gene, E. coli kanamycin selection, DiMSum; sequences stand for … in CUCUCU…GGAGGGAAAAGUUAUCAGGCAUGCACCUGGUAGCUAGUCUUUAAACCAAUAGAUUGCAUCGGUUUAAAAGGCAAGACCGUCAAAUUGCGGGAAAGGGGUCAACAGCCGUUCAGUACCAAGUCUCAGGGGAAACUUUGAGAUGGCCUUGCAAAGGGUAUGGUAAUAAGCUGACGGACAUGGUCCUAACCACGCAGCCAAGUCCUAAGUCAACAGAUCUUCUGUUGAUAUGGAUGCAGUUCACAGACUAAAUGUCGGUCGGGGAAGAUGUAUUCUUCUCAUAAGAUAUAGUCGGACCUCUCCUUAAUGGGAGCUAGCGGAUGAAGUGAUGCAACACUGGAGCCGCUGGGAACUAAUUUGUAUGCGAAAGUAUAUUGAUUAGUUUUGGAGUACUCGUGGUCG;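 further: selection with 25 µg/mL kanamycin versus none on LB agar overnight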
- test_settings: 37 °C
Use fulfilled when the recorded self-splicing fitness (ln) is no lower than -2; use not fulfilled when it is lower.

{"monomer_sequence": "GUGUAGCAAUAUUACGGCCU", "label": "fulfilled"}
{"monomer_sequence": "CGUUAGCAAUAUUACGGAUA", "label": "not fulfilled"}
{"monomer_sequence": "CAGUAGCAAUAUUACGGAAU", "label": "not fulfilled"}
{"monomer_sequence": "UUUGAGCAAUAUUACGUUCA", "label": "not fulfilled"}
{"monomer_sequence": "UCUAAGCAAUAUUACGAUAU", "label": "not fulfilled"}
{"monomer_sequence": "CCAUAGCAAUAUUACGGCUG", "label": "fulfilled"}
{"monomer_sequence": "GGCCAGCAAUAUUACGAAGC", "label": "fulfilled"}
{"monomer_sequence": "UCUGAGCAAUAUUACGUCAC", "label": "not fulfilled"}
{"monomer_sequence": "GAUAAGCAAUAUUACGCACA", "label": "fulfilled"}

---

- assay_method_text: self-splicing fitness, log relative to wild type (ln ratio); higher = more splicing; Tetrahymena group I intron in knt gene, E. coli kanamycin selection, DiMSum; sequences stand for … in CUCUCU…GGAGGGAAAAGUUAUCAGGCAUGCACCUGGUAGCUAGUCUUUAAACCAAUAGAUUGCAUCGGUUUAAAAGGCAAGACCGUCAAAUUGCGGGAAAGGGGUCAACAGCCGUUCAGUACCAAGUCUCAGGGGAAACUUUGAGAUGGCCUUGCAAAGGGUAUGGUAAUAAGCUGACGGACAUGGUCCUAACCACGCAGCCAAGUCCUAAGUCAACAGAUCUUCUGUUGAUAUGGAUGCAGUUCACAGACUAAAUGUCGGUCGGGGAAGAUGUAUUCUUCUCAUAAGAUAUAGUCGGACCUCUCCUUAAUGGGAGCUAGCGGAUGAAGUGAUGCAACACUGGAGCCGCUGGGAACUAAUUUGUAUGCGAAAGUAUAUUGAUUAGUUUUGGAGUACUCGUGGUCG
- test_settings: 37 °C
Respond with true for self-splicing fitness (ln) values of -1 and above, false for values below.

{"monomer_sequence": "CCAAAGCAAUAUUACGGGUA", "label": "false"}
{"monomer_sequence": "CAUAAGCAAUAUUACGUGUA", "label": "false"}
{"monomer_sequence": "GUAAAGCAAUAUUACGCCGC", "label": "false"}
{"monomer_sequence": "GAUGAGCAAUAUUACGUAGA", "label": "false"}
{"monomer_sequence": "AGGCAGCAAUAUUACGACUU", "label": "true"}
{"monomer_sequence": "AAAGAGCAAUAUUACGUGCU", "label": "false"}
{"monomer_sequence": "GCGCAGCAAUAUUACGUCUC", "label": "true"}
{"monomer_sequence": "CUGGAGCAAUAUUACGACAG", "label": "false"}
{"monomer_sequence": "CGAAAGCAAUAUUACGAUCG", "label": "false"}
{"monomer_sequence": "AGACAGCAAUAUUACGGGCC", "label": "false"}
{"monomer_sequence": "GAAUAGCAAUAUUACGUAGC", "label": "false"}
{"monomer_sequence": "AACAAGCAAUAUUACGACCA", "label": "true"}
{"monomer_sequence": "GGCCAGCAAUAUUACGGAAG", "label": "true"}
{"monomer_sequence": "CAUUAGCAAUAUUACGAGUA", "label": "false"}
{"monomer_sequence": "GUCAAGCAAUAUUACGUAGG", "label": "false"}
{"monomer_sequence": "UUUAAGCAAUAUUACGUAAC", "label": "false"}
{"monomer_sequence": "CGGUAGCAAUAUUACGUGAU", "label": "true"}
{"monomer_sequence": "GAUAAGCAAUAUUACGACGC", "label": "true"}
{"monomer_sequence": "AUUGAGCAAUAUUACGUCAC", "label": "false"}
{"monomer_sequence": "CAAGAGCAAUAUUACGAUCC", "label": "false"}
{"monomer_sequence": "GUGUAGCAAUAUUACGAACA", "label": "true"}
{"monomer_sequence": "CUCUAGCAAUAUUACGAACG", "label": "true"}
{"monomer_sequence": "GGAUAGCAAUAUUACGACUU", "label": "true"}
{"monomer_sequence": "GCGCAGCAAUAUUACGAUCA", "label": "true"}
{"monomer_sequence": "UACUAGCAAUAUUACGGACU", "label": "true"}
{"monomer_sequence": "AGGGAGCAAUAUUACGUAUU", "label": "false"}
{"monomer_sequence": "GGUUAGCAAUAUUACGUAAA", "label": "true"}
{"monomer_sequence": "GCCGAGCAAUAUUACGCAGU", "label": "false"}
{"monomer_sequence": "UAGAAGCAAUAUUACGGUGA", "label": "true"}
{"monomer_sequence": "ACCCAGCAAUAUUACGUCCA", "label": "true"}
